All figures here come from patent US10098889B2.

experiment: High temperature test (stability study); type: physicochemical; conditions: High temperature, 60° C., 5 days
Known Total impurity (%) of a selection of compounds
measured.attribute: Total impurity (%)

# mol.smiles, measured.attribute, val
data = [
    ("COC(=O)C1=C(CN2CCOC[C@H]2C(=O)O)N=C(c2nccs2)N[C@H]1c1ccc(F)cc1Cl.O=C(O)C(O)C(O)C(=O)O", "Total impurity (%)", 0.17),
    ("COC(=O)C1=C(CN2CCOC[C@H]2C(=O)O)N=C(c2nccs2)N[C@H]1c1ccc(F)cc1Cl.Cl", "Total impurity (%)", 0.37),
    ("COC(=O)C1=C(CN2CCOC[C@H]2C(=O)O)NC(c2nccs2)=N[C@H]1c1ccc(F)cc1Cl", "Total impurity (%)", 3.01),
    ("Br.COC(=O)C1=C(CN2CCOC[C@H]2C(=O)O)N=C(c2nccs2)N[C@H]1c1ccc(F)cc1Cl", "Total impurity (%)", 0.31),
]
